The measurements presented in this section are drawn from paper PMC10547880.

- Tested on: H1299 cells
- experimental-details: CCK8 cell viability, H1299
- Assay type: cell-based, Human
- applied-conditions: H1299, 25 μM, 72 h
Cell viability: recorded values
observable: Cell viability (%)

{"compound": "COc1c2n(cc(C(=O)Nc3cccc(-c4cn(Cc5ccccc5C(F)(F)F)nn4)c3)c1=O)CC1OCC(C)N1C2=O (centres unmarked)", "result-units": "%", "readout-value": 92.15}
{"compound": "COc1cccc(Cn2cc(-c3cccc(NC(=O)c4cn5c(c(OC)c4=O)C(=O)N4C(C)COC4C5)c3)nn2)c1 (centres unmarked)", "result-units": "%", "readout-value": 94.37}
{"compound": "COc1c2n(cc(C(=O)Nc3cccc(-c4cn(-c5ccccc5Cl)nn4)c3)c1=O)CC1OCC(C)N1C2=O (centres unmarked)", "result-units": "%", "readout-value": 97.37}
{"compound": "COc1c2n(cc(C(=O)Nc3cccc(-c4cn(Cc5ccccc5C)nn4)c3)c1=O)CC1OCC(C)N1C2=O (centres unmarked)", "result-units": "%", "readout-value": 97.63}
{"compound": "COc1c2n(cc(C(=O)Nc3cccc(-c4cn(Cc5ccccc5Br)nn4)c3)c1=O)CC1OCC(C)N1C2=O (centres unmarked)", "result-units": "%", "readout-value": 101.92}
{"compound": "COc1c2n(cc(C(=O)Nc3cccc(-c4cn(Cc5ccccc5)nn4)c3)c1=O)CC1OCC(C)N1C2=O (centres unmarked)", "result-units": "%", "readout-value": 101.39}
{"compound": "COc1c2n(cc(C(=O)Nc3cccc(-c4cn(-c5ccc(F)cc5)nn4)c3)c1=O)CC1OCC(C)N1C2=O (centres unmarked)", "result-units": "%", "readout-value": 91.74}
{"compound": "COc1c2n(cc(C(=O)Nc3cccc(-c4cn(-c5cccc(C(F)(F)F)c5)nn4)c3)c1=O)CC1OCC(C)N1C2=O (centres unmarked)", "result-units": "%", "readout-value": 93.73}
{"compound": "COc1c2n(cc(C(=O)Nc3cccc(-c4cn(-c5ccc(C(F)(F)F)cc5)nn4)c3)c1=O)CC1OCC(C)N1C2=O (centres unmarked)", "result-units": "%", "readout-value": 92.49}
{"compound": "COc1c2n(cc(C(=O)Nc3cccc(-c4cn(Cc5ccc(Cl)cc5)nn4)c3)c1=O)CC1OCC(C)N1C2=O (centres unmarked)", "result-units": "%", "readout-value": 96.47}
{"compound": "COc1c2n(cc(C(=O)Nc3cccc(-c4cn(-c5cccc(F)c5)nn4)c3)c1=O)CC1OCC(C)N1C2=O (centres unmarked)", "result-units": "%", "readout-value": 100.41}
{"compound": "COc1c2n(cc(C(=O)Nc3cccc(-c4cn(-c5ccccc5)nn4)c3)c1=O)CC1OCC(C)N1C2=O (centres unmarked)", "result-units": "%", "readout-value": 87.16}
{"compound": "COc1c2n(cc(C(=O)Nc3cccc(-c4cn(Cc5ccc(C(F)(F)F)cc5)nn4)c3)c1=O)CC1OCC(C)N1C2=O (centres unmarked)", "result-units": "%", "readout-value": 93.95}
{"compound": "CCc1ccccc1-n1cc(-c2cccc(NC(=O)c3cn4c(c(OC)c3=O)C(=O)N3C(C)COC3C4)c2)nn1 (centres unmarked)", "result-units": "%", "readout-value": 99.81}
